Test system: OVCAR-3 ovarian
Experiment: NCI-60 one-dose screen, 48 h (100 = growth as untreated, 0 = no growth, -100 = all killed)
Details: 10 µM unless noted
This is part of a sample that, as a whole, favours compounds with a hit. Of some 83,000 tested, about 20% had one in any assay. Activity calls are given as the source filed them. The calls were made as follows: active = growth percent below 10; inactive = the rest.
ASSAY_READOUT: growth

>>> print(df.to_string())
                                   compound     assay_system  experimental_value
0  O=C(CCCC(=O)Nc1ccc(Cn2nnc3cc(Cl)c(Cl)cc32)cc1)Nc1ccc(CN2N=NC3C=C(Cl)C(Cl)=CC32)cc1 (stereo not drawn)  OVCAR-3 ovarian    87.7% (inactive)
1        O=C(/C=C/c1ccc(Cl)cc1)c1ccc(Cl)cc1  OVCAR-3 ovarian    89.7% (inactive)
2               COC1=C(OC)C(=O)c2ccccc2C1=O  OVCAR-3 ovarian    87.8% (inactive)
